Provenance of the data: PubChem BioAssay (NCI)

# System: SR leukemia
# Assay Protocol: NCI-60 one-dose screen, 48 h
# Assay Context: 10 µM unless noted
This is part of a sample that, as a whole, favours compounds with a hit. Of some 83,000 tested, about 20% had one in any assay. Activity calls are given as the source filed them. The calls were made as follows: active = growth percent below 10; inactive = the rest.
Outcome codes: y = active, n = inactive

Molecule: O=CN1N=C(c2ccc3c(c2)OCO3)CC1c1cccc(Nc2ccnc3cc(C(F)(F)F)ccc23)c1 (configuration not stated)
Label Class: n
//
Molecule: Nc1c(C(=O)Nc2ccccn2)sc2nc3c(cc12)CCCCC3
Label Class: y
//
Molecule: CCN1CCN(Cc2ccc(NC(=O)c3cccc(C#Cc4cccc5[nH]nc(N)c45)c3)cc2C(F)(F)F)CC1
Label Class: y
//
Molecule: COC1=CC2C=C(C3N(c4ccccc4)NC(=O)[C@@H]4CCCN34)C(=O)NC2C=C1 (some centres not stated)
Label Class: n
//
Molecule: CCC[S@](=O)c1ccc2nc(NC(=O)OC)[nH]c2c1
Label Class: n
//
Molecule: c1cc(CNC23CC4CC(CC(C4)C2)C3)cc(C[N+](Cc2cccc(CNC34CC5CC(CC(C5)C3)C4)c2)(Cc2cccc(CNC34CC5CC(CC(C5)C3)C4)c2)Cc2cccc(CNC34CC5CC(CC(C5)C3)C4)c2)c1 (configuration not stated)
Label Class: y
//
Molecule: COc1cc2nc3c(=O)n(-c4ccc(C#N)cc4)cnn3c(=O)c2cc1OC
Label Class: n
//
Molecule: Nc1ccc2c(c1)C(=O)C(=O)c1c-2nc2ccccn12
Label Class: y
//
Molecule: COC(=O)[C@]1(C)CCC[C@]2(C)[C@H]3C[C@H]4C(C(C)C)=C[C@]3(CC[C@H]21)[C@@H]1C(=O)N(CCC#N)C(=O)[C@@H]14
Label Class: n
//
Molecule: CN1CC=C(c2cc(NC(=O)Nc3ccc(Oc4ccnc(NC(=O)C5CC5)c4)c(F)c3)cc(C(F)(F)F)c2)CC1
Label Class: y
//
Molecule: Cc1cc2ccccc2c[n+]1CC(=O)c1ccc(-c2ccccc2)cc1
Label Class: n
//
Molecule: Cn1nc(C(F)(F)F)c(-c2cc(C(F)(F)F)cc(C(F)(F)F)c2)c1-c1ccc(OCc2ccc(Cl)cc2)cc1O
Label Class: y
//
Molecule: CCCCN(CCCC)CC(CN(CC)CC)OC(=O)Nc1ccccc1 (configuration not stated)
Label Class: n
//
Molecule: COc1cc(C2=N/C(=C\c3cc4ccccc4nc3Oc3ccccc3)C(=O)N2C(=N)N)cc(OC)c1OC
Label Class: n
//
Molecule: C#C[C@@]1(O)[C@@H](CO)O[C@@H](n2cnc3c(-c4ccccc4)ncnc32)[C@@H]1O
Label Class: n
//
Molecule: CCOC(=O)c1c(C)nc2c(c1N)/C(=C/c1ccccn1)C(=O)N2Cc1ccccc1
Label Class: y
//
Molecule: CCn1cc(C(=O)O)c(=O)c2cc(F)c(N3CCN(CC(=O)Nc4ccc(/C(C)=N/OC)cc4)CC3)cc21
Label Class: n
//
Molecule: NC(=O)C(O)(c1ccccc1)c1ccccc1
Label Class: n
//
Molecule: COc1ccc2oc(=O)cc(-c3nc4ccc(N)cc4[nH]3)c2c1
Label Class: n
//
Molecule: COc1ccc(-c2[nH]c3ccccc3c2C=C(C#N)C#N)cc1
Label Class: y
//
Molecule: CC(=O)c1ccc(NC(=O)CSc2nnc(-c3cc(-c4ccc(Cl)cc4)nc4ccccc34)o2)cc1
Label Class: y
//
Molecule: COC(=O)c1ccc(NC(=O)CSc2nc(-c3ccc(F)cc3)nc3ccccc23)cc1
Label Class: n
//
Molecule: O=C(CSC(=S)N1CCCCC1)Nc1ccccc1
Label Class: n
//
Molecule: CCOC(=O)c1c(C)nc2c(c1N)/C(=C/c1ccc[nH]1)C(=O)N2Cc1ccc(C(F)(F)F)cc1
Label Class: n
//
Molecule: COc1cc(NC(=O)Nc2cnc(Nc3ccc(N4CCOCC4)cc3)nc2Oc2ccc(F)cc2)cc(OC)c1
Label Class: n
//
Molecule: Cc1cnc(SCc2ccc(Cl)cc2)[nH]c1=S
Label Class: n
//
Molecule: O=C(Nc1nccs1)c1noc2ccccc12
Label Class: n
//
Molecule: C=C1C(=O)O[C@H]2[C@H]1CC/C(COC(=O)/C=C/c1cccnc1)=C\CC[C@@]1(C)O[C@@H]21
Label Class: y
//
Molecule: COc1cc(C(C)c2ccc3c(ccn3C)c2)cc(OC)c1OC (configuration not stated)
Label Class: n
//
Molecule: C/C(=C\c1cnc(C)s1)[C@@H]1C[C@@H]2O[C@@H]2CCC[C@H](C)[C@H](O)[C@@H](C)C(=O)C(C)(C)[C@@H](O)CC(=O)O1
Label Class: n
//
Molecule: c1ccc2c3c([nH]c2c1)C(c1ccc(C2NCCc4c2[nH]c2ccccc42)cc1)NCC3 (configuration not stated)
Label Class: y
//
Molecule: CC(=O)OCC1SC(OC(C)=O)C(NC(=O)/C=C/CCl)C(OC(C)=O)C1OC(C)=O (configuration not stated)
Label Class: n
//
Molecule: Fc1ccc(N/N=C/c2ccc(-n3cccn3)cc2)cc1
Label Class: n
//
Molecule: C#C[C@@]1(O)[C@@H](CO)O[C@@H](n2cc(Cl)c3c(N)ncnc32)[C@@H]1O
Label Class: y
//
Molecule: O=C1C(=O)c2c(nc3ccc(Br)cn23)-c2ccccc21
Label Class: y
//
Molecule: CC(C)(C)CC(C)(C)Cc1ccc(OCCOCC[N+](C)(C)Cc2ccccc2)cc1
Label Class: y
//
Molecule: N#Cc1c(NC(=O)c2cccs2)[n+]([O-])c2cc(C(F)(F)F)ccc2[n+]1[O-]
Label Class: n

----------
# System: LOX IMVI melanoma
# Assay Protocol: NCI-60 one-dose screen, 48 h
# Assay Context: 10 µM unless noted
Compounds without any hit were thinned out: in the full panel of roughly 83,000, 20% have a hit. Active and inactive are the calls of the source. Rule for the calls: active = growth percent below 10; inactive = the rest.
Outcome codes: active, inactive

Compound: CC1=C(CCCOC(=O)NCCCl)C2=C(C)C3(CC3)[C@@](C)(O)C(=O)C2=C1
Label Class: inactive

Compound: CC(=O)O[C@@H]1C[C@]2(C)[C@H]3[C@H](O)C[C@@H]4C5=CC(C)(C)CC[C@]5(C)CC[C@@]4(C)[C@]3(C)CC[C@H]2C(C)(C)[C@H]1O
Label Class: inactive

Compound: NC(=O)CN1C(=O)c2ccccc2C1=O
Label Class: inactive

Compound: O=C1CC23OC(C(O)c4ccccc4N12)C1C(c2ccccc2)=NOC13 (stereo not given)
Label Class: inactive

Compound: COc1ccc(-c2nc(C#N)c(NCC(c3ccco3)N3CCCC3)o2)cc1 (stereo not given)
Label Class: inactive

Compound: COc1ccc(C2=NN(c3ccc(S(N)(=O)=O)cc3)C(c3ccc(Cl)cc3)C2)c(O)c1 (stereo not given)
Label Class: inactive

Compound: Cc1cnc(SCc2ccc(Cl)cc2)[nH]c1=S
Label Class: inactive

Compound: C#C[C@@]1(O)[C@@H](CO)O[C@@H](n2cc(I)c3c(N)ncnc32)[C@@H]1O
Label Class: active

Compound: C#Cc1cccc(Nc2ncnc3ccc(NC(=O)c4ccccc4)cc23)c1
Label Class: inactive

Compound: CCOc1ccc(C2N(c3cc(OC)c(OC)c(OC)c3)C(=O)C2(F)F)cc1 (stereo not given)
Label Class: inactive

----------
Catalogue of growth readings, one per entry.
# System: SK-MEL-28 melanoma
# Assay Protocol: NCI-60 one-dose screen, 48 h (100 = growth as untreated, 0 = no growth, -100 = all killed)
# Assay Context: 10 µM unless noted
This is part of a sample that, as a whole, favours compounds with a hit. Of some 83,000 tested, about 20% had one in any assay. The source made the active and inactive calls. How the source made its calls: active means growth percent below 10; inactive means the rest.
Property: growth

Compound: CC(C)(C)c1ccc2oc(=O)n(SC(Cl)(Cl)Cl)c2c1
Value Reported: 112% (inactive)
//
Compound: O=C(Nc1ccc2ncnc(Nc3ccc(F)c(Cl)c3)c2c1)c1ccccc1
Value Reported: 97.5% (inactive)
//
Compound: CCOC(=O)C1=C(C)n2nc(CC#N)c(C#N)c2NC1c1ccc(CC)cc1 (stereo not drawn)
Value Reported: 103% (inactive)
//
Compound: C=CCn1c(SCC(=O)Nc2ccc(C(=O)/C=C/c3cc(OC)c(OC)c(OC)c3)cc2)nnc1-c1ccc(Cl)cc1
Value Reported: 59% (inactive)
//
Compound: C=C(C)[C@@H]1CC[C@]2(C(=O)n3ccnc3)CC[C@]3(C)[C@H](CC[C@@H]4[C@@]5(C)CCCNC(C)(C)[C@@H]5CC[C@]43C)[C@@H]12
Value Reported: -51.5% (active)
//
Compound: O=C(Nc1cc(Br)ccn1)c1cc2cc(Nc3nc(-c4ccccc4)nc4ccccc34)ccc2oc1=O
Value Reported: 114% (inactive)
//
Compound: CC(=O)OCC1OC(OC2C(COC(C)=O)OC(OCCC[S-])C(OC(C)=O)C2OC(C)=O)C(OC(C)=O)C(OC(C)=O)C1OC(C)=O.[Au+].c1ccc(CN2[CH-]N(Cc3ccccc3)C(c3ccccc3)=C2c2ccccc2)cc1 (stereo not drawn)
Value Reported: 28.4% (inactive)
//
Compound: O=S(=O)(Nc1nccs1)c1ccc(Nc2nc(-c3ccncc3)cs2)cc1
Value Reported: 109% (inactive)
